Recorded Beta2 duration values (Beta-2 adrenergic receptor (Cavia porcellus) (UniProt Q8K4Z4)) are given below.
PARAMETER MEASURED: Beta2 duration (min)

[[record]]
structure_smiles = "Cc1cc(C)cc(CCOCNS(=O)(=O)CCCNCCc2ccc(O)c3nc(O)sc23)c1"
parameter_measured = "Beta2 duration"
bound_operator = ">"
readout_value = 180

[[record]]
structure_smiles = "Oc1nc2c(O)ccc(CCNCCCOCCOCCc3ccccc3)c2s1"
parameter_measured = "Beta2 duration"
bound_operator = ">"
readout_value = 180

[[record]]
structure_smiles = "Cc1cnc(CCOCCCS(=O)(=O)CCNCCc2ccc(O)c3nc(O)sc23)s1"
parameter_measured = "Beta2 duration"
bound_operator = "="
readout_value = 126

[[record]]
structure_smiles = "O=C(CCOCCc1ccccc1)NCCNCCc1ccc(O)c2nc(O)sc12"
parameter_measured = "Beta2 duration"
bound_operator = "="
readout_value = 57

[[record]]
structure_smiles = "O=S(=O)(CCCOCCc1ccccn1)CCNCCc1ccc(O)c2nc(O)sc12"
parameter_measured = "Beta2 duration"
bound_operator = "="
readout_value = 24

[[record]]
structure_smiles = "Oc1nc2c(O)ccc(CCNCCCSCCOCCc3ccccn3)c2s1"
parameter_measured = "Beta2 duration"
bound_operator = "="
readout_value = 75

[[record]]
structure_smiles = "Oc1nc2c(O)ccc(CCNCCC(F)(F)CCCOCCc3ccccc3)c2s1"
parameter_measured = "Beta2 duration"
bound_operator = ">"
readout_value = 180


---

# TEST DETAILS: physchem
# Description: Ionization constant (pKa)
// reported pKa for each item listed
PARAMETER MEASURED: pKa

[[record]]
structure_smiles = "O=S(=O)(CCCOCCCCc1ccccc1)CCNCCc1ccc(O)c2nc(O)sc12"
readout_value = "< 8"

[[record]]
structure_smiles = "Oc1nc2c(O)ccc(CCNCCCSCCOCCOc3ccccc3)c2s1"
readout_value = "> 8"

[[record]]
structure_smiles = "Oc1nc2c(O)ccc(CCNCCCOCCOCCc3ccccc3)c2s1"
readout_value = "> 8"

[[record]]
structure_smiles = "Oc1nc2c(O)ccc(CCNCCCSCCOCCc3ccccn3)c2s1"
readout_value = "> 8"

[[record]]
structure_smiles = "CC(C)(CCCCOCCc1cccc(N)c1)CNCCc1ccc(O)c2nc(O)sc12"
readout_value = "> 8"


---

# TEST DETAILS: physchem
# CONDITION INFO: octanol/water, pH 7.4, logD
Mark MET for reported logD of 2 or greater; mark NOT MET for anything smaller.

[[record]]
structure_smiles = "Oc1nc2c(O)ccc(CCNCCSCCCOCCc3ccccn3)c2s1"
group_label = "NOT MET"

[[record]]
structure_smiles = "Oc1nc2c(O)ccc(CCNCCC(F)(F)CCCOCCc3ccccc3)c2s1"
group_label = "MET"

[[record]]
structure_smiles = "O=S(=O)(CCCNCCc1ccc(O)c2nc(O)sc12)NCCOCCSc1ccccc1"
group_label = "NOT MET"

[[record]]
structure_smiles = "O=S(=O)(CCCOCCc1cc2ccccc2o1)CCNCCc1ccc(O)c2nc(O)sc12"
group_label = "MET"

[[record]]
structure_smiles = "Nc1ccccc1CCOCCS(=O)(=O)CCCNCCc1ccc(O)c2nc(O)sc12"
group_label = "NOT MET"

[[record]]
structure_smiles = "O=C(CCCOCCc1ccccc1)NCCNCCc1ccc(O)c2nc(O)sc12"
group_label = "NOT MET"

[[record]]
structure_smiles = "O=S(=O)(CCCOCCCc1ccccc1)CCNCCc1ccc(O)c2nc(O)sc12"
group_label = "MET"

[[record]]
structure_smiles = "O=S(=O)(CCCCCCNCCc1ccc(O)c2nc(O)sc12)CCc1ccccc1"
group_label = "NOT MET"

[[record]]
structure_smiles = "CC(C)(CNCCc1ccc(O)c2nc(O)sc12)CSCCOCCc1ccccc1N"
group_label = "MET"

[[record]]
structure_smiles = "NC(=O)c1ccc(CCOCCCS(=O)(=O)CCNCCc2ccc(O)c3nc(O)sc23)cc1"
group_label = "NOT MET"

[[record]]
structure_smiles = "Oc1nc2c(O)ccc(CCNCCCOCCOCCc3ccccc3)c2s1"
group_label = "NOT MET"

[[record]]
structure_smiles = "Oc1nc2c(O)ccc(CCNCCSCCCOCCc3ccccc3)c2s1"
group_label = "MET"

[[record]]
structure_smiles = "O=S(=O)(CCCOCCc1ccc(O)cc1)CCNCCc1ccc(O)c2nc(O)sc12"
group_label = "NOT MET"

[[record]]
structure_smiles = "Oc1nc2cccc(CCNCCCCCCNCCc3ccc(O)c4nc(O)sc34)c2s1"
group_label = "NOT MET"

[[record]]
structure_smiles = "Cc1ccc(CCOCCNS(=O)(=O)CCCNCCc2ccc(O)c3nc(O)sc23)cc1"
group_label = "MET"

[[record]]
structure_smiles = "O=S(=O)(CCOCCc1ccccc1)NCCNCCc1ccc(O)c2nc(O)sc12"
group_label = "NOT MET"

[[record]]
structure_smiles = "O=S(=O)(CCCNCCc1ccc(O)c2nc(O)sc12)NCCSCCc1ccccc1"
group_label = "NOT MET"

[[record]]
structure_smiles = "Oc1nc2c(O)ccc(CCNCCCSCCOCCc3ccccn3)c2s1"
group_label = "NOT MET"

[[record]]
structure_smiles = "Cc1ccc(CCOCCCS(=O)(=O)CCNCCc2ccc(O)c3nc(O)sc23)nc1"
group_label = "NOT MET"

[[record]]
structure_smiles = "O=S(=O)(CCOCCCc1ccccc1)NCCNCCc1ccc(O)c2nc(O)sc12"
group_label = "MET"

[[record]]
structure_smiles = "O=C(CCOCCCc1ccccc1)NCCNCCc1ccc(O)c2nc(O)sc12"
group_label = "NOT MET"

[[record]]
structure_smiles = "Oc1nc2c(O)ccc(CCNCCNCCCOCCc3ccccc3)c2s1"
group_label = "NOT MET"

[[record]]
structure_smiles = "O=S(=O)(CCCNCCc1ccc(O)c2nc(O)sc12)NCCOCCc1ccc(F)cc1"
group_label = "NOT MET"

[[record]]
structure_smiles = "O=S(=O)(CCOCCc1ccccc1)NCCCNCCc1ccc(O)c2nc(O)sc12"
group_label = "NOT MET"

[[record]]
structure_smiles = "O=S(=O)(CCCOCCSc1ccccc1)CCNCCc1ccc(O)c2nc(O)sc12"
group_label = "MET"


FYI, the data here is from ChEMBL document CHEMBL1145849.
